Study target: Lysine-specific demethylase 4A (Homo sapiens)
Experiment summary: qHTS Assay for Inhibitors of JMJD2A-Tudor Domain; note: nearly all actives have a fitted effect of over 50% in size
Condition summary: AlphaScreen JMJD2A-Tudor / H3K4me3 peptide binding; series mostly up to 114 µM
Description: JMJD2A is a jumonji-domain-containing lysine demethylase that uses Fe(II) together with 2-OG to effect oxidative demethylation of histones. Methylation is one of many […] modification that affect epigenetic transcription. […] A quantitative high throughput AlphaScreen has been developed to identify small molecule inhibitors based on a protocol published by NCGC and SGC [4]. […] [2] Yasgar, et al. Compound Management for Quantitative High-Throughput Screening. […]
The whole screen tested about 390,000 compounds, of which about 17,000 (4.4%) were called active. About 8% were inconclusive and are not listed. Calls come from the whole dose curve; as a rule, active = well fitted inhibition curve with a large enough effect; inconclusive = small, poorly fitted or top-dose-only effect; inactive = no such curve, though single readings can be large or run the other way. This excerpt belongs to a sample that is enriched for actives.
Mark one answer only. Choices: active, inactive

{"columns": ["Molecule", "Qualitative label"],
 "data": [
  ["COc1ccc(-n2c(C)cc(C(=O)COC(=O)c3cc(OC)c(OC)cc3NC(=O)c3cccs3)c2C)cc1", "inactive"],
  ["Cc1cc2nn(-c3ccc(Cl)cc3)nc2cc1NC(=O)C(C)C", "inactive"],
  ["CCCCNC(=O)C1CCC(CNS(=O)(=O)c2ccc(NC(C)=O)cc2)CC1 (configuration not stated)", "inactive"]
]}

INPUT: What call does the record list for Cc1ccc(Cl)cc1NC(=O)C(C)n1nnc2sc(-c3ccccc3)cc2c1=O (configuration not stated) ?
OUTPUT: active

INPUT: What call does the record list for COc1ccc(-n2c(C)cc(C(=O)CSc3nnc(-c4cccs4)o3)c2C)cc1 ?
OUTPUT: active

INPUT: What call does the record list for CCCCCCn1nnc2sc(-c3ccccc3)cc2c1=O ?
OUTPUT: inactive

INPUT: What call does the record list for Cc1ccc(OC(=O)CSc2nnc(-c3cccs3)o2)cc1 ?
OUTPUT: inactive

----------
Study target: Lysine-specific demethylase 4A (Homo sapiens)
Experiment summary: qHTS Assay for Inhibitors of JMJD2A-Tudor Domain; note: nearly all actives have a fitted effect of over 50% in size
Condition summary: AlphaScreen JMJD2A-Tudor / H3K4me3 peptide binding; series mostly up to 114 µM
Among all 390,000 compounds or so, about 17,000 (4.4%) were called active. Inconclusive results (about 8%) are left out. The call rests on the fitted dose curve; in most records, active means well fitted inhibition curve with a large enough effect; inconclusive means small, poorly fitted or top-dose-only effect; inactive means no such curve, though single readings can be large or run the other way. Only a selection was taken, and actives are over-represented in it overall.
Mark one answer only. Choices: 1.0 = active, 0.0 = inactive

INPUT: What call does the record list for CC1CCN(S(=O)(=O)c2ccc3c(c2)N(CC(=O)NCCc2ccccc2)C(=O)CO3)CC1 ?
OUTPUT: 0.0

----------
Study target: Lysine-specific demethylase 4A (Homo sapiens)
Experiment summary: qHTS Assay for Inhibitors of JMJD2A-Tudor Domain; note: nearly all actives have a fitted effect of over 50% in size; note: potency is the fitted concentration of half-maximal effect
Condition summary: AlphaScreen JMJD2A-Tudor / H3K4me3 peptide binding; series mostly up to 114 µM
The campaign covered roughly 390,000 compounds. About 17,000 (4.4%) were called active. Inconclusive results (about 8%) are left out. The sample holds actives, similar compounds and a random draw of the others, so the mix is not that of the screen.

{"columns": ["Chemical smiles", "Potency"],
 "data": [
  ["O=C(N/N=C/c1ccccn1)c1cccnc1", "79.4 µM (active)"],
  ["CCc1ccc2ncc3c(-c4ccc(C)cc4)nn(CC(=O)NCc4ccccc4)c3c2c1", "inactive"],
  ["O=C(N/N=C/c1ccccn1)c1cccc(NC(=O)c2ccc(Cl)cc2)c1", "inactive"]
]}
